Documented T/C across a set of molecules
Test system: L1210 leukemia ip in BDF1 mice, survival T/C
ASSAY_PROTOCOL: NCI In Vivo Anticancer Drug Screen. Data for tumor model L1210 Leukemia (intraperitoneal) in B6D2F1 (BDF1) mice
EXPERIMENTAL_CONDITIONS: endpoint: mean survival time; dose: 100.0 mg/kg/injection; schedule: Q01DX001 (ip); vehicle: saline; higher = longer survival
Toxic doses and inconclusive results are not listed.
ENDPOINT_NAME: T/C

# MOLECULE, ENDPOINT_RESULT
data = [
    ("NCc1c[nH]c2ccccc12", "95 % of control"),
    ("O=C(Nc1ccc(S(=O)(=O)NC2CCCCC2)cc1)OC1CCCCC1", "92 % of control"),
    ("C(=N\\N1CCN(/N=C/c2ccc(OCc3ccccc3)cc2)CC1)/c1ccc(OCc2ccccc2)cc1", "102 % of control"),
    ("CC(=O)/C=C(\\C)NCC(C)N/C(C)=C/C(C)=O (stereo not drawn)", "105 % of control"),
    ("c1ccc(COC2NCCN2Cc2ccccc2)cc1 (stereo not drawn)", "98 % of control"),
    ("COc1ccc(C=NCCN=Cc2ccc(OC)c(OC)c2)cc1OC", "100 % of control"),
    ("N/C(=N\\[N+](=O)[O-])N(CCCCl)N=O", "97 % of control"),
    ("O=C(O)c1cc([N+](=O)[O-])cs1", "98 % of control"),
    ("CCCCC(CCCC)=NNc1ccc([N+](=O)[O-])cc1[N+](=O)[O-]", "96 % of control"),
    ("NC(=O)C1=CNCCC1", "114 % of control"),
    ("CCC1(C)NC(=O)NC1=O (stereo not drawn)", "112 % of control"),
    ("CSC(=N)N", "105 % of control"),
    ("CCS(=O)(=O)C1CCC1OC(C)(C)C (stereo not drawn)", "108 % of control"),
]
